# measurement_target: Myo3, P36006
# experimental_protocol: SPOT array
# reported_conditions: median of control spots 468
attribute_measured: SPOT intensity

binder	obs_value
DKKTKPTPPPKPSHL	0
APERAVPILPPRNNV	66
LKRITSPPLPPRADS	75
NVLRKILEIPLHSFS	0
RRTRLRPPTPLSQLL	6
QFDLKMPSKPIHNLK	34
RNNRPVPPPPPMRTT	0
GRLRPKRIAPWHLIQ	0
RFKRHRLEFPFNESE	0
NGRRRPKFRVQLSGN	30
ILARAILTIPRVLDK	17
EQEEIAPSLPSRNSI	0
NFFRKKLGIPRKLKR	3
RSRRSSFAYPQQVAI	8
KNPRRQLQIPRQQPS	4
RKQRSIPLSPIVPES	4
VLRFLGFPLPIFEKG	1
AAHKTKPSIPPKKVE	0
LLLLFVPDSPYDPAI	0
DLFKPLPEPPTELGR	0
PIVPSSPAPPLPLSG	399
TKHKAPPPPPPTAET	0
NLPKRKPPKLQGPFS	42
EVTPKVPERPSRRKT	0
QLMKNLPKIPLLNDI	72
PKRRAPPPVPKKPSS	342
RKRRTHLRLPLIRSN	5
QGYPRQPQRPQRYHP	0
HAPPLPPTAPPPPSL	465
LPMNIQPDLPPRKIM	102
KRRAPPPVPKKPSSR	454
